Test system: KM12 colon
Assay Text: NCI tumour cell line growth inhibition, 48 h
Endpoint Label: TGI

> print(dat)
                                    compound     result
 1  CCOC(=O)CC(=O)NC1CC2CCC1(C)C2(C)C (stereo not drawn)   > 100 µM
 2  CC[C@@H]1C[C@@H]2CN3CCc4c([nH]c5ccc(OC)cc45)C(COC(=O)c4ccc(OC)c(OC)c4)(C2)C13   > 100 µM
 3  C=CC1(C)CCC(C(C)C(=O)C(C=C(C)C)OC(C)=O)C12C(=O)Oc1ccccc1C2=O (stereo not drawn)   > 100 µM
 4  COc1ccc(-c2ccc(C3CC(c4ccc(O)cc4)=NN3)o2)c([N+](=O)[O-])c1 (stereo not drawn)    95.9 µM
 5                 CN1CCCN2CCN(C)CCN(CC1)CC2   > 100 µM
 6             CC(=O)N1CCC2(C=Nc3ccccc32)CC1   > 100 µM
 7  CC1=CC=NN2C(=O)[C@H](C)C2C1 (stereo partly drawn)   > 100 µM
 8  CSc1ccc2c(cc1=O)[C@@H](NC(C)=O)CCc1cc(O)c(O)c(O)c1-2    41.4 µM
 9  C/C(CN1C(=O)c2ccccc2C1=O)=N\NS(=O)(=O)c1cccc([N+](=O)[O-])c1   > 100 µM
10  COc1ccc(C(=O)Cn2c(C(=O)c3ccc(OC)cc3)nc3ccccc32)cc1   > 100 µM
11    COc1c2c(c(OC)c3c1c(=O)c1ccccc1n3C)OCO2  > 41.9 µM
12                CCOc1c2ccsc2c(OCC)c2ccsc12   > 100 µM
13  Oc1c(CN2CCC(N3CCOCC3)CC2)cc(Cc2cc(CN3CCC(N4CCOCC4)CC3)c(O)c3ncccc23)c2cccnc12   > 100 µM
14  CCc1ccc(-c2nnc(COc3ccc(-c4nc5ccc(C)cc5[nH]4)cc3OC)o2)cc1   > 100 µM
15  Brc1cccc(/C=C/CN2CCN(CCOC(c3ccccc3)c3ccccc3)CC2)c1    31.3 µM
16  CCOP(=O)(OCC)C(NC(=O)OCC(Cl)(Cl)Cl)n1nnc(C(=O)OC)c1C(=O)OC (stereo not drawn)   > 100 µM
17  O=C(Nc1ccc(-c2nc3cc4ccccc4cc3[nH]2)cc1)c1cccc(Br)c1    32.4 µM
18  CCC1(C)C=Cc2c(cc(OC)c3c(=O)c4ccccc4n(C)c23)O1 (stereo not drawn)    > 10 µM

====

Test system: SNB-19 CNS
Assay Text: NCI tumour cell line growth inhibition, 48 h
Endpoint Label: TGI

Compound	Result
Cc1ccc(S(=O)ON2CCC(C(=O)O)(c3ccccc3)CC2)cc1 (stereo not given)	> 100 µM
CCOC(=O)c1c(C)n(Cc2ccccc2)c(=O)c2ccccc2c(=O)c2c(=O)ccc(=O)c1=2	> 100 µM
CC(C)C[C@@H](NC(=O)[C@@H](Cc1ccccc1)NC(=O)c1cnccn1)B1O[C@H]2[C@H](O)[C@@H](C(=O)NCCCC[C@@H]3NC(=O)[C@@H](Cc4ccccc4)NC(=O)[C@H](CC(=O)O)NC(=O)CNC(=O)[C@H](CCCN=C(N)N)NC3=O)O[C@@H](CN)[C@H]2O1	5.12 µM
Oc1ccc2ccccc2c1C=NCCCN=Cc1c(O)ccc2ccccc12	> 100 µM
c1ccc2c(c1)ccc1nc(-c3ccc4c(c3)OCO4)c3c(c12)CCCC3	> 100 µM
Cc1cc2nc3n[nH]c(N)c3nc2cc1C	> 100 µM
O=c1c2ccccc2nc2n1NC(c1c(Cl)cccc1Cl)N2c1cccc(Cl)c1 (stereo not given)	18 µM
C/C(=N/NC(=S)Nc1ccccc1Cl)c1ccccn1	48.5 µM
O=C1/C(=C/c2cccc([N+](=O)[O-])c2)COc2ccc(O)c(O)c21	2.98 µM
COc1c2c(c(OC)c3c1c(=O)c1ccccc1n3C)OCO2	> 100 µM
C=CC1(C)CCC(C(C)C(=O)C(C=C(C)C)OC(C)=O)C12C(=O)Oc1ccccc1C2=O (stereo not given)	> 100 µM
Cc1ccc(C)c(NC(=O)C(=O)C2C(=O)C3=C(CC2(C)C)Nc2ccccc2S3)c1 (stereo not given)	> 100 µM
S=c1[nH]nc(COc2ccc3c(c2)CCCC3)n1/N=C/c1ccc(Cl)cc1	40 µM
CCNc1nnc(CSc2nc(-c3ccccc3)c(-c3ccccc3)[nH]2)s1	34 µM
CCCCCCCCCOC(=O)c1cnc(Cl)cn1	47.5 µM
COC(=O)C1(C)C=C(Nc2ccccc2)C(=O)N1c1ccccc1 (stereo not given)	> 100 µM
COc1nc2c(OC)cccc2c(OC)c1C=O	> 100 µM
Cc1ccc(C)c(NC(=O)C(=O)C(c2cnc3ccc([N+](=O)[O-])cc3n2)[N+](=O)[O-])c1 (stereo not given)	> 100 µM
CCN1CC2=C(N=c3s/c(=C\c4ccc(Cl)cc4)c(=O)n3C2c2ccc(Cl)cc2)/C(=C/c2ccc(Cl)cc2)C1 (stereo not given)	> 100 µM
Nc1ccccc1C#CC#Cc1ccccc1N	> 100 µM
CC(C)(C)OC(=O)[N+](=N)C(=O)C1CCC(=O)N1C(=O)OCc1ccccc1 (stereo not given)	> 100 µM
Clc1ccc(-c2nn3c(CCCCCCCCc4nnc5sc(-c6ccc(Cl)cc6)nn45)nnc3s2)cc1	> 87.6 µM
O=C1OC(c2ccco2)=N/C1=C\c1ccc(Cl)c(Cl)c1	> 100 µM
CCN(CC)C(=S)SS(=O)(=O)c1ccccc1C(=O)O	> 100 µM
OCCN(CCO)N=Nc1ccc(-c2nc3ccccc3[nH]2)cc1	> 100 µM

====

Tested on: HS 578T breast
Assay Text: NCI tumour cell line growth inhibition, 48 h; in the data active = GI50 below about 0.43 µM; inactive = the rest
Classes used: active, inactive

> print(dat)
                            structure.string  category
 1   CCn1c(=O)c(-c2ccn[nH]2)cc2c(C)nc(N)nc21    active
 2  O=C1c2ccccc2-c2c1c1ccccc1c(=O)n2CCCNCCCn1c2c(c3ccccc3c1=O)C(=O)c1ccccc1-2  inactive
 3  COc1cccc(-c2nn(-c3ccccc3)cc2-c2ccnc(NCCNS(=O)(=O)c3ccc(Cl)cc3)c2)c1  inactive
 4  O=C1/C(=C/c2cccc([N+](=O)[O-])c2)COc2ccc(O)c(O)c21  inactive
 5  O=C(/C=C/c1ccco1)c1ccc(Nc2nc(Nc3ccc(F)cc3)nc(Nc3ccc(Cl)cc3)n2)cc1  inactive
 6  CC1=C(C)C(=O)c2c(c(C(=O)c3ccccc3)c3nc4ccccc4n3c2C)C1=O  inactive
 7  Cn1c(C(N)=O)cc2c1-c1nc(Nc3ccccc3)ncc1CCC2  inactive
 8  Oc1ccc(C(c2ccccc2)(c2ccccc2)c2ccccc2)cc1  inactive
 9  COc1ccc(CN2C(=O)/C(=C\c3cc(OC)c(OC)c(OC)c3)c3cc(OC)ccc32)cc1  inactive
10  COc1ccc(C(=O)Cn2c(C(=O)c3ccc(Cl)cc3)nc3ccccc32)cc1  inactive
11  Nc1c(C(=O)Nc2ccccc2)sc2nc3c(cc12)CCCCCC3  inactive

====

Tested on: COLO 205 colon
Assay Text: NCI tumour cell line growth inhibition, 48 h
Some molecules, each annotated with its measured TGI.
Endpoint Label: TGI

> print(dat)
                                    molecule     test.target  endpoint.label     result
 1        S=c1ssc2c3ssc(=S)c3n(Cc3ccccc3)c12  COLO 205 colon             TGI   > 100 µM
 2  COc1ccc2[nH]c(CCNC(=O)c3cc([N+](=O)[O-])cc([N+](=O)[O-])c3)cc2c1  COLO 205 colon             TGI   > 100 µM
 3  CC(=O)/C(C=Nc1c(C)n(C)n(-c2ccccc2)c1=O)=C(/C)O  COLO 205 colon             TGI   > 100 µM
 4  Cc1ccc(C)c(NC(=O)C(=O)C(c2cnc3ccc([N+](=O)[O-])cc3n2)[N+](=O)[O-])c1 (stereo not given)  COLO 205 colon             TGI   > 100 µM
 5  CC1=CC=NN2C(=O)[C@H](C)C2C1 (stereo not given in full)  COLO 205 colon             TGI   > 100 µM
 6         CNc1ccccc1C(=O)N/N=C/C=C/c1ccccc1  COLO 205 colon             TGI    10.3 µM
 7         C/C(=N/NC(=S)Nc1ccccc1Cl)c1ccccn1  COLO 205 colon             TGI    2.54 µM
 8  O=C(OCCN=C1c2ccccc2CCc2ccccc21)c1cc([N+](=O)[O-])cc([N+](=O)[O-])c1  COLO 205 colon             TGI  > 31.6 µM
 9          COc1ccc(/C=C2\C=Cc3ccccc32)cc1OC  COLO 205 colon             TGI   > 100 µM
10  COc1c(CC=C(C)C)c(O)c(C(CC(C)C)c2c(O)c(C(C)=O)c(O)c3c2OC(C(C)(C)O)C3)c(O)c1C(C)=O (stereo not given)  COLO 205 colon             TGI  > 12.5 µM
